testedTarget: angiotensin I-converting enzyme (from rabbit lung) (Oryctolagus cuniculus)
Construct: angiotensin I-converting enzyme (from rabbit lung); purchased Sigma Aldrich (St. Louis, Mo, USA); host or cells: rabbit lung (tissue-derived)
Sequence (P12822 34-1310): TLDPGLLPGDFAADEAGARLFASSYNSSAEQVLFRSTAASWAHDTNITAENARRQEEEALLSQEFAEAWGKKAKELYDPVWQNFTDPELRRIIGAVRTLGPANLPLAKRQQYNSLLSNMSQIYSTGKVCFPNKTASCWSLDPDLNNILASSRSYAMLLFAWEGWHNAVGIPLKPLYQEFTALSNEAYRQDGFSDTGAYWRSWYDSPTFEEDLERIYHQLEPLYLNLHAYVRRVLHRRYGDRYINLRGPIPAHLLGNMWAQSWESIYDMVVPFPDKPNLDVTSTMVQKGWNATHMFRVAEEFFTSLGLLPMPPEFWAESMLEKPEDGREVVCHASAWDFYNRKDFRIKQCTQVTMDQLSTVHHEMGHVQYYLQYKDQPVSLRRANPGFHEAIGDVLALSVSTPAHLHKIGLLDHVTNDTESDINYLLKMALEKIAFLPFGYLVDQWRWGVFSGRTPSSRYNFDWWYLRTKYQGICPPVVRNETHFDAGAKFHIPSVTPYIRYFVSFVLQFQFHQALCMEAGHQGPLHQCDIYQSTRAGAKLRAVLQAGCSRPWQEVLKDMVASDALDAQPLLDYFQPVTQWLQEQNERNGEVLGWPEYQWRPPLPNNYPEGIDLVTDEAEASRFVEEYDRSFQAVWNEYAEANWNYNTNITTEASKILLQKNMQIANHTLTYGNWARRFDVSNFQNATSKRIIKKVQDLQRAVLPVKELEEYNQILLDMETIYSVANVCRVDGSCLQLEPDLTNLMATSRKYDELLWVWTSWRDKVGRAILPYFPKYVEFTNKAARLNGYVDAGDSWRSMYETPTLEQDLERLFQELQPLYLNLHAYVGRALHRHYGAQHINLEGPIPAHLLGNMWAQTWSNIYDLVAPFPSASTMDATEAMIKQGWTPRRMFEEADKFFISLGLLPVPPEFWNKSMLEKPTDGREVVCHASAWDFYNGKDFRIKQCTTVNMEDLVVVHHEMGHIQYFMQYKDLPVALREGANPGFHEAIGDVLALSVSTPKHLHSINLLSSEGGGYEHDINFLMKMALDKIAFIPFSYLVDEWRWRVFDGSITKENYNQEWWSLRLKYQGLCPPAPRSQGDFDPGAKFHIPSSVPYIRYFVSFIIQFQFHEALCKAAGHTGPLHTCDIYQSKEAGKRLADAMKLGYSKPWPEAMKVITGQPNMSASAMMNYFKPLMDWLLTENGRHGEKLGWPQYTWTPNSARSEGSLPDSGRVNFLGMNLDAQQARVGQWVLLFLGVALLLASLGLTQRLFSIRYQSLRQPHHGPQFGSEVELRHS
assayNotes: ACE-inhibitory activity assay (HHL substrate, colorimetric at 410 nm) and IC50 determination
Type: biochemical
conditionsUsed: synthesized peptide at 10 mM; mean ± SD, triplicate
No end group written: not given here.
The label depends only on inhibition at 10000 µM: criterion met if it is at least 80%, criterion not met if it is smaller.

* ALGPQFY [Ala-Leu-Gly-Pro-Gln-Phe-Tyr] | criterion met
* LAPPTM [Leu-Ala-Pro-Pro-Thr-Met] | criterion not met
* EHPVL [Glu-His-Pro-Val-Leu] | criterion not met
* EVLIQ [Glu-Val-Leu-Ile-Gln] | criterion not met

----------
testedTarget: angiotensin I-converting enzyme (from rabbit lung) (Oryctolagus cuniculus)
Construct: angiotensin I-converting enzyme (from rabbit lung); purchased Sigma Aldrich (St. Louis, Mo, USA); host or cells: rabbit lung (tissue-derived)
assayNotes: ACE-inhibitory activity assay (HHL substrate, colorimetric at 410 nm) and IC50 determination
Format: biochemical
conditionsUsed: synthesized peptide; non-linear regression; mean ± SD, triplicate
Protocol: The peptides were chemically synthesized through solid phase synthesis for peptides ≥ 5 amino acids with a percentage purity of > 90% and supplied by Genscript (New Jersey, USA). The ACE-inhibitory activity was measured according to Jimsheena & Gowda with minor modifications. […] The ACE-inhibitory activity of the peptides was then calculated from the average of three values as follows: ACE−inhibition(%)=[(AC−AS)/(AC−AB)]×100 (1) […]
pIC50: −log10 of the molar value. No end group written: not given here.
Reported values of pIC50 for individual entries
outcomeMeasure: pIC50

* LAPPTM [Leu-Ala-Pro-Pro-Thr-Met] | 2.88
* EHPVL [Glu-His-Pro-Val-Leu] | 2.77
* KVPPKA [Lys-Val-Pro-Pro-Lys-Ala] | 3.01
* EVLIQ [Glu-Val-Leu-Ile-Gln] | 2.84
* ALGPQFY [Ala-Leu-Gly-Pro-Gln-Phe-Tyr] | 4.92

This collection of values is drawn from paper PMC6542528.
